# subject-of-test: HDAC3 (Homo sapiens, UniProt O15379)
# Construct: purchased Reaction Biology Corporation (assay run by the CRO)
# Sequence (O15379 whole entry): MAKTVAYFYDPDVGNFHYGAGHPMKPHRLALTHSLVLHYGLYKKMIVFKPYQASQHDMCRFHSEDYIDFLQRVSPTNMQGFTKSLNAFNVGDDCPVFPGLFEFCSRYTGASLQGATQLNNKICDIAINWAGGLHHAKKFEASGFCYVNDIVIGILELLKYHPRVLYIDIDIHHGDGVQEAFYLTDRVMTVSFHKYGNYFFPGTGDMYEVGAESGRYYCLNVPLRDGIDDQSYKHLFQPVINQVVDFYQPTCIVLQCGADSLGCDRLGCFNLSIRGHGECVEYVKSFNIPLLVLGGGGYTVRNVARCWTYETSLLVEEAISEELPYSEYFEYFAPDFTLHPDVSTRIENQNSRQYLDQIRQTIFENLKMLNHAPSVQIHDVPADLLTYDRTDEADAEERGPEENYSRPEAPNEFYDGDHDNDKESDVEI
# Sequence (Q9Y618 395-489 partner limits assumed): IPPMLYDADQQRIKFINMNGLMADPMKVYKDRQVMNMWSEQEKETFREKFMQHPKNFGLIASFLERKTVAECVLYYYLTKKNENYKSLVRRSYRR
# procedure-summary: HDAC3 inhibition, full IC50 measurement (Reaction Biology; fluorogenic p53 peptide RHKK(Ac)AMC)
# Assay type: biochemical
# study-conditions: Conc. 1.11E-06 M, t2
Peptide text beside a SMILES is read from it.
property-label: HDAC3 activity raw data (signal)

| compound | HDAC3 activity raw data (signal) |
| --- | --- |
| N=C(N)NCCC[C@@H]1NC(=O)[C@@H](CCCNC(=N)N)NC(=O)[C@H]2CCCN2C(=O)[C@@H](Cc2c[nH]cn2)NC(=O)[C@H](Cc2ccc(O)cc2)NC(=O)[C@H](CCCCCS)NC(=O)[C@H](CCc2ccccc2)NC(=O)[C@@H](CO)NC(=O)[C@H](CC(=O)O)NC1=O [des3.3.1, SHA-Tyr-dHis-dPro-dArg-Arg-Asp-dSer-C27] (HELM PEPTIDE1{[O=C([C@H](CCCCCS)N[*:1])[*:2]].Y.[dH].[dP].[dR].R.D.[dS].[O=C([C@H](CCc1ccccc1)N[*:1])[*:2]]}$PEPTIDE1,PEPTIDE1,1:R1-9:R2$$$V2.0) | 10427 |

API: the following record is the query input.
Test item N=C(N)NCCC[C@H]1NC(=O)[C@@H]2CCCN2C(=O)[C@H](CO)NC(=O)[C@@H](Cc2c[nH]cn2)NC(=O)[C@H](CCCCCS)NC(=O)[C@H](CCCCN)NC(=O)[C@H](Cc2ccc(O)cc2)NC(=O)[C@H]2CCCN2C(=O)[C@@H](CCC(N)=O)NC1=O [des3.1.0, SHA-dHis-Ser-Pro-dArg-dGln-dPro-Tyr-Lys] (HELM PEPTIDE1{K.[O=C([C@H](CCCCCS)N[*:1])[*:2]].[dH].S.P.[dR].[dQ].[dP].Y}$PEPTIDE1,PEPTIDE1,1:R1-9:R2$$$V2.0) ; HDAC3 (Homo sapiens, UniProt O15379); reported HDAC3 activity raw data (signal) was 414242

Origin of the recorded values: paper PMC8185074
